Test: Stability in human simulated intestinal fluid at 1 mg/mL after 30 mins
Format: ADME
Settings: read-out: Stability
Measured Endpoint: remaining at 0.5 h, 1 mg/mL (%)

INSERT INTO measurements (molecule, unit_descriptor, measurement) VALUES
  ('COC(=O)C(C)(C)NP(=O)(OC[C@H]1O[C@@H](n2cnc3c(N(C)NS(C)(=O)=O)ncnc32)[C@](C)(O)[C@@H]1O)Oc1ccc(Cl)cc1 (stereo partly drawn)', '%', 100),
  ('CC(NP(=O)(OC[C@H]1O[C@@H](n2cnc3c(N(C)NS(C)(=O)=O)ncnc32)[C@](C)(O)[C@@H]1O)Oc1ccccc1)C(=O)OCc1ccccc1 (stereo partly drawn)', '%', 0),
  ('COC(=O)CNP(=O)(OC[C@H]1O[C@@H](n2cnc3c(N(C)NS(C)(=O)=O)ncnc32)[C@](C)(O)[C@@H]1O)Oc1ccc(Cl)cc1 (stereo partly drawn)', '%', 0);

====

Assay: Stability in human simulated intestinal fluid at 1 mg/mL after 60 mins
Type: ADME
Settings: read-out: Stability
Measured Endpoint: remaining at 1 h, 1 mg/mL (%)

INSERT INTO results (compound, measurement) VALUES
  ('CC(NP(=O)(OC[C@H]1O[C@@H](n2cnc3c(N(C)NS(C)(=O)=O)ncnc32)[C@](C)(O)[C@@H]1O)Oc1ccc(Cl)cc1)C(=O)OCc1ccccc1 (stereo partly specified)', 0),
  ('CC(NP(=O)(OC[C@H]1O[C@@H](n2cnc3c(N(C)NS(C)(=O)=O)nc(N)nc32)[C@](C)(O)[C@@H]1O)Oc1ccc(Cl)cc1)C(=O)OCc1ccccc1 (stereo partly specified)', 0),
  ('CC(C)OC(=O)C(C)NP(=O)(OC[C@H]1O[C@@H](n2cnc3c(N(C)NS(C)(=O)=O)nc(N)nc32)[C@](C)(O)[C@@H]1O)Oc1ccc(Cl)cc1 (stereo partly specified)', 37),
  ('CC(NP(=O)(OC[C@H]1O[C@@H](n2cnc3c(N(C)NS(C)(=O)=O)nc(N)nc32)[C@](C)(O)[C@@H]1O)Oc1ccccc1)C(=O)OCc1ccccc1 (stereo partly specified)', 0),
  ('COC(=O)CNP(=O)(OC[C@H]1O[C@@H](n2cnc3c(N(C)NS(C)(=O)=O)ncnc32)[C@](C)(O)[C@@H]1O)Oc1ccccc1 (stereo partly specified)', 0),
  ('COC(=O)CNP(=O)(OC[C@H]1O[C@@H](n2cnc3c(N(C)NS(C)(=O)=O)ncnc32)[C@](C)(O)[C@@H]1O)Oc1ccc(Cl)cc1 (stereo partly specified)', 0);

====

Test: Stability in human simulated intestinal fluid at 1 mg/mL after 30 mins
Format: ADME
Settings: read-out: Stability
Measured Endpoint: remaining at 0.5 h, 1 mg/mL (%)

INSERT INTO measurements (molecule, measured_endpoint, unit_descriptor, measurement) VALUES
  ('COC(=O)CNP(=O)(OC[C@H]1O[C@@H](n2cnc3c(N(C)NS(C)(=O)=O)ncnc32)[C@](C)(O)[C@@H]1O)Oc1ccccc1 (some centres undefined)', 'remaining at 0.5 h, 1 mg/mL', '%', 0),
  ('COC(=O)CNP(=O)(OC[C@H]1O[C@@H](n2cnc3c(N(C)NS(C)(=O)=O)nc(N)nc32)[C@](C)(O)[C@@H]1O)Oc1ccccc1 (some centres undefined)', 'remaining at 0.5 h, 1 mg/mL', '%', 0),
  ('CC(NP(=O)(OC[C@H]1O[C@@H](n2cnc3c(N(C)NS(C)(=O)=O)nc(N)nc32)[C@](C)(O)[C@@H]1O)Oc1ccccc1)C(=O)OCc1ccccc1 (some centres undefined)', 'remaining at 0.5 h, 1 mg/mL', '%', 0),
  ('CC(C)OC(=O)C(C)NP(=O)(OC[C@H]1O[C@@H](n2cnc3c(N(C)NS(C)(=O)=O)ncnc32)[C@](C)(O)[C@@H]1O)Oc1ccc(Cl)cc1 (some centres undefined)', 'remaining at 0.5 h, 1 mg/mL', '%', 67),
  ('COC(=O)CNP(=O)(OC[C@H]1O[C@@H](n2cnc3c(N(C)NS(C)(=O)=O)nc(N)nc32)[C@](C)(O)[C@@H]1O)Oc1ccc(Cl)cc1 (some centres undefined)', 'remaining at 0.5 h, 1 mg/mL', '%', 0),
  ('CC(NP(=O)(OC[C@H]1O[C@@H](n2cnc3c(N(C)NS(C)(=O)=O)ncnc32)[C@](C)(O)[C@@H]1O)Oc1ccc(Cl)cc1)C(=O)OCc1ccccc1 (some centres undefined)', 'remaining at 0.5 h, 1 mg/mL', '%', 0),
  ('CC(C)OC(=O)C(C)NP(=O)(OC[C@H]1O[C@@H](n2cnc3c(N(C)NS(C)(=O)=O)nc(N)nc32)[C@](C)(O)[C@@H]1O)Oc1ccc(Cl)cc1 (some centres undefined)', 'remaining at 0.5 h, 1 mg/mL', '%', 61),
  ('CC(NP(=O)(OC[C@H]1O[C@@H](n2cnc3c(N(C)NS(C)(=O)=O)nc(N)nc32)[C@](C)(O)[C@@H]1O)Oc1ccc(Cl)cc1)C(=O)OCc1ccccc1 (some centres undefined)', 'remaining at 0.5 h, 1 mg/mL', '%', 0),
  ('COC(=O)C(C)(C)NP(=O)(OC[C@H]1O[C@@H](n2cnc3c(N(C)NS(C)(=O)=O)nc(N)nc32)[C@](C)(O)[C@@H]1O)Oc1ccc(Cl)cc1 (some centres undefined)', 'remaining at 0.5 h, 1 mg/mL', '%', 100);
